# assay-name: Brain/cerebrospinal fluid transport test
# Assay type: in vivo
# setup-conditions: rat, cerebrospinal fluid; male SD rats, 2 hours after oral administration (10 mg/kg); read-out: concentration in the cerebrospinal fluid
# Experimental: A test compound was orally or intravenously administered to male SD rats (7-10 weeks old, 200-400 g), and whole blood was collected from the abdominal aorta of said rats anesthetized with ether at predetermined time, using a heparin-treated syringe. […] The supernatant was analyzed by LC/MS/MS, and the concentration of the test compound in the plasma, brain, and cerebrospinal fluid were measured by the method using a relative calibration curve.
measurement-kind: concentration at 2 h (nM)

>>> reported("O=C1OC2(CCC(c3cc(-c4ccnc(-c5ccccc5)n4)[nH]n3)CC2)c2cnccc21 (stereo not shown)")
15

* * *

# assay-name: Brain/cerebrospinal fluid transport test
# Format: in vivo
# setup-conditions: rat, plasma; male SD rats, 2 hours after oral administration (10 mg/kg); read-out: concentration in the plasma
measurement-kind: concentration at 2 h (nM)

>>> reported("O=C1OC2(CCC(c3cc(-c4ccnc(-c5ccccc5)n4)[nH]n3)CC2)c2cnccc21 (stereo not shown)")
1160
